Property: IC50; scope: individual compounds
- System: Anti-OXY antibodies
- MEASUREMENT_NOTES: Competitive ELISA of serum from animals immunized with OXY(Gly)4-KLH, OXY(Gly)4-OVA as coating antigen
- Format: binding, rat
Where a SMILES comes first, the peptide text is derived from it. The star is where a group is joined. X1 = COc1ccc2c3c1OC1C(=NOCC(=O)*)CCC4(O)C(C2)N(C)CCC314
QUANTITY_MEASURED: IC50 (nM)

>>> test_result("COc1ccc2c3c1OC1C(=NOCC(=O)NCC(=O)NCC(=O)NCC(=O)NCC(=O)O)CCC4(O)C(C2)N(C)CCC314 (stereo not shown) [OXY(Gly)4] (X1-GGGG-OH)")
3
>>> test_result("CN1CC[C@]23c4c5ccc(O)c4O[C@H]2C(=O)CC[C@@]3(O)[C@H]1C5")
30
>>> test_result("COc1ccc2c3c1O[C@H]1C(=O)CC[C@@]4(O)[C@@H](C2)N(C)CC[C@]314")
17
>>> test_result("COc1ccc2c3c1O[C@H]1C(=O)CC[C@H]4[C@@H](C2)N(C)CC[C@]314 [Hydrocodone]")
10000

---

- Test system: Anti-OXY antibodies
- MEASUREMENT_NOTES: Competitive ELISA of serum from animals immunized with OXY(Gly)4-KLH, OXY(Gly)4-OVA as coating antigen
- Type: binding, rat
Where a SMILES comes first, the peptide text is derived from it. The star is where a group is joined. X1 = COc1ccc2c3c1OC1C(=NOCC(=O)*)CCC4(O)C(C2)N(C)CCC314
QUANTITY_MEASURED: affinity, competition or binding to antibodies (in words)

>>> test_result("O=C1CC[C@@]2(O)[C@H]3Cc4ccc(O)c5c4[C@@]2(CCN3CC2CC2)[C@H]1O5 [Naltrexone]")
"substantially lower"
>>> test_result("COc1ccc2c3c1O[C@H]1C(=O)CC[C@H]4[C@@H](C2)N(C)CC[C@]314 [Hydrocodone]")
"substantially lower"
>>> test_result("COc1ccc2c3c1OC1C(=NOCC(=O)NCC(=O)NCC(=O)NCC(=O)NCC(=O)O)CCC4(O)C(C2)N(C)CCC314 (stereo not drawn) [OXY(Gly)4] (X1-GGGG-OH)")
"high affinities"
>>> test_result("CN1CC[C@]23c4c5ccc(O)c4O[C@H]2[C@@H](O)C=C[C@H]3[C@H]1C5 [Morphine]")
"substantially lower"
>>> test_result("COc1ccc2c3c1O[C@H]1C(=O)CC[C@@]4(O)[C@@H](C2)N(C)CC[C@]314 [OXY, Oxycodone]")
"high affinities"

// data source = patent US20140093525A1
